Value source: patent US20150322129A1

Would you kindly list EC50 hGLP-1R (cAMP formation) for each of these binders?
Target: human GLP-1 receptor (human, UniProt P43220 24-463)
Assay: cell-based or functional assay
Numbered stars: 1 amine (or outer) side, 2 acyl side, 3 side chain; on linkers, the order of the positions; unused ones are H or OH. Square brackets hold non-standard residues; d marks the D form. Side chains are listed from the residue outwards. Ends that are not written are not given here. * marks the point of attachment. γGlu = O=C(O)[C@H](CCC(=O)[*:2])N[*:1]; Stearoyl = CCCCCCCCCCCCCCCCCC(=O)*; Palmitoyl = CCCCCCCCCCCCCCCC(=O)*; Aib = CC(C)(N)C(=O)O
Numeric answer only, unit pM assumed.

Return reported EC50 hGLP-1R (cAMP formation); argument: H-H[Aib]HGTFTSDLSKQK(Ac)EEEAVRLFIEWLKAGGPSSGAPPPS-NH2 [SEQ ID NO: 34]
0.7

Please answer likewise for H[Aib]HGTFTSDLSKQK([γGlu-Palmitoyl])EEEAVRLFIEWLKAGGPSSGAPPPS-NH2 [SEQ ID NO: 12]
3.3

Entry H[dS]HGTFTSDLSKQK([γGlu-Palmitoyl])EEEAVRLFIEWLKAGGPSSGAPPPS-NH2 [SEQ ID NO: 14] please
4.1

Now the same for H[dS]HGTFTSDLSKQK(Ac)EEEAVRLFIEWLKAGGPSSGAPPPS-NH2 [SEQ ID NO: 35]
0.4

Would you kindly repeat that for H[Aib]HGTFTSDLSKQK([γGlu-Stearoyl])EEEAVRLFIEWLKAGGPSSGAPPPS-NH2 [SEQ ID NO: 7] ?
6.5
